target.or.system: MMP-9 (Homo sapiens, UniProt P14780)
Construct: matrix metalloproteinases were obtained from culture media conditioned by MCF-7 human breast cancer cells; endogenous in cells; host or cells: MCF-7 human breast cancer cells (conditioned culture medium)
Sequence (P14780 94-707): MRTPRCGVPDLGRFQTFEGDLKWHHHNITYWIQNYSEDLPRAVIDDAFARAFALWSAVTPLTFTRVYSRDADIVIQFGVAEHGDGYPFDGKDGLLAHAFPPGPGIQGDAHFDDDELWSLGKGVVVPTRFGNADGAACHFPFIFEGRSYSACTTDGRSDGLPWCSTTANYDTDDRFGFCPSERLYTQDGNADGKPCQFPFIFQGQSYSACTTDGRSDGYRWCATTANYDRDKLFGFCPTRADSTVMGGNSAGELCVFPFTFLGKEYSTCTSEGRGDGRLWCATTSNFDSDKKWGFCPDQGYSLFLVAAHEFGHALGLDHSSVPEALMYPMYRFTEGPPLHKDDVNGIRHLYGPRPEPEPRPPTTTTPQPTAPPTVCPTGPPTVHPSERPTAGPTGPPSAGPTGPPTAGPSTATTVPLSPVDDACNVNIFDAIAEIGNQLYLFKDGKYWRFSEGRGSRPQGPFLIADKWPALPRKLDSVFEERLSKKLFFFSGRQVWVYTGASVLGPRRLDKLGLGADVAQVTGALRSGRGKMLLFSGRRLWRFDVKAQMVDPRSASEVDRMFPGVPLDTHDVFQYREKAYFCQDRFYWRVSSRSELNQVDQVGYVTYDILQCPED
assay.details: In vitro inhibition of MMPs by gelatine zymography (MMP-9)
Format: biochemical
assay.setup: concentration that inhibited approximately half of the maximal enzymatic activity; MMPs from MCF-7 conditioned media in gelatine SDS gels, incubated overnight at 37° C., pH 7.5; read-out: In vitro inhibition of matrix metalloproteinases (nM) MMP-9
observation.type: IC50 (nM)

O=C(C[C@@H](CCCc1ccccc1)C(=O)N[C@@H](Cc1ccccc1)C(=S)NCCCc1ccccc1)NO [Example 5]: 1

A. CNC(=S)[C@H](Cc1ccccc1)NC(=O)[C@@H](CC(=O)NO)CC(C)C [Example 3]
B. CNC(=O)[C@H](Cc1ccccc1)NC(=O)[C@@H](CC(=O)NO)CC(C)C [Comparator 1, reference compound]
Request: Identify the entry with the larger IC50. Options: A and B Pick one and reply with its label.
Response: B
(B: 10 nM, A: 1 nM)
